Below, each of the molecules is paired with its reported MIC value.
System: Staphylococcus aureus
protocolText: microbe, parasite or virus in culture
testContext: MRSA, read-out: Staphylococcus aureus MIC, MRSA strain NR-28983
Give the value, in units of µg/mL, as a plain number.

As a guide, the following entries are already answered.
OCc1ccccc1Sc1c[nH]c2ccc(Br)cc12 [Compound 174AT] : 16
FC(F)(F)c1ccc2[nH]cc(Sc3ccccc3Br)c2c1 [Compound 174AX] : 2
Brc1ccc(Sc2c[nH]c3ccc(Br)cc23)cc1 [Compound 172D] : 1.56
Fc1ccccc1Sc1c[nH]c2ccc(Br)cc12 [Compound 174AU] : 2
FC(F)(F)c1ccccc1Sc1c[nH]c2ccc(Br)cc12 [Compound 174AV] : 1

For the molecule Oc1ccccc1Sc1c[nH]c2ccc(Br)cc12 [Compound 174AI, 2-((5-bromo-1H-indol-3-yl)thio)phenol] , what MIC is on record? 8

For the molecule Cc1ccccc1Sc1c[nH]c2ccc(Br)cc12 [Compound 174AY, 5-bromo-3-(o-tolylthio)-1H-indole] , what MIC is on record? 4

For the molecule Brc1cccc(Sc2c[nH]c3ccc(Br)cc23)c1 [Compound 174N] , what MIC is on record? 3.13

For the molecule Nc1ccccc1Sc1c[nH]c2ccc(Br)cc12 [Compound 174M, 2-((5-bromo-1H-indol-3-yl)thio)aniline] , what MIC is on record? 12.5

----------
System: Staphylococcus aureus
protocolText: microbe, parasite or virus in culture
testContext: MRSA, read-out: Staphylococcus aureus MIC, MRSA strain NR-41877
Below, each of the compounds is paired with its reported MIC value.
Give the value, in units of µg/mL, as a plain number.

As a guide, the following entries are already answered.
Brc1cccc(Sc2c[nH]c3ccc(Br)cc23)c1 [Compound 174N] : 3.13
Nc1ccccc1Sc1c[nH]c2ccc(Br)cc12 [Compound 174M, 2-((5-bromo-1H-indol-3-yl)thio)aniline] : 25
FC(F)(F)c1ccc2[nH]cc(Sc3ccccc3Br)c2c1 [Compound 174AX] : 2

Read the next record carefully.
For the compound Fc1ccccc1Sc1c[nH]c2ccc(Br)cc12 [Compound 174AU] , what MIC is on record? 4

----------
Below, each of the molecules is paired with its reported MIC value.
System: Staphylococcus aureus
protocolText: microbe, parasite or virus in culture
testContext: MRSA, read-out: Staphylococcus aureus MIC, MRSA strain NK-41886
Give the value, in units of µg/mL, as a plain number.

As a guide, the following entries are already answered.
FC(F)(F)c1ccc2[nH]cc(Sc3ccccc3Br)c2c1 [Compound 174AX] : 2
Fc1ccccc1Sc1c[nH]c2ccc(Br)cc12 [Compound 174AU] : 2

Read the next record carefully.
For the molecule FC(F)(F)c1ccccc1Sc1c[nH]c2ccc(Br)cc12 [Compound 174AV] , what MIC is on record? 2
